# System: HCT-116
# ASSAY OVERVIEW: Antiproliferative activity against human HCT-116 cells assessed as inhibition of cell growth incubated for 96 hrs by MTT assay
# Assay type: functional, cell-based
# ASSAY CONDITIONS: HCT-116, 96 h
MEASURED QUANTITY: IC50 (nM)
Give bare numbers, in nM.

Some compounds with known IC50 results, for comparison:
| STRUCTURE SMILES | STUDY SYSTEM | IC50 [nM] |
| --- | --- | --- |
| Cc1nc(-c2nc(-c3ccc(OC(F)(F)F)cc3)no2)nn1Cc1cccc(N2CCC(S(C)(=O)=O)CC2)c1 | HCT-116 | 9.63 |
| Cc1cc(C(=O)Nc2ccc(C(F)(F)F)cc2)nn1Cc1cccc(N2CCN(C(=O)C3CC3)CC2)c1 | HCT-116 | 0.52 |

Please look at the following compound next.
-- ask Give its IC50 value. Item: Cc1cc(C(=O)Nc2ccc(OC(F)(F)F)cc2)nn1Cc1cccc(N2CCN(C(=O)C3CC3)CC2)c1
-- reply 1.02

====

The listing below reports IC50 for compounds tested on Cytochrome P450 2C9 (Homo sapiens).
Sequence (P11712 whole entry): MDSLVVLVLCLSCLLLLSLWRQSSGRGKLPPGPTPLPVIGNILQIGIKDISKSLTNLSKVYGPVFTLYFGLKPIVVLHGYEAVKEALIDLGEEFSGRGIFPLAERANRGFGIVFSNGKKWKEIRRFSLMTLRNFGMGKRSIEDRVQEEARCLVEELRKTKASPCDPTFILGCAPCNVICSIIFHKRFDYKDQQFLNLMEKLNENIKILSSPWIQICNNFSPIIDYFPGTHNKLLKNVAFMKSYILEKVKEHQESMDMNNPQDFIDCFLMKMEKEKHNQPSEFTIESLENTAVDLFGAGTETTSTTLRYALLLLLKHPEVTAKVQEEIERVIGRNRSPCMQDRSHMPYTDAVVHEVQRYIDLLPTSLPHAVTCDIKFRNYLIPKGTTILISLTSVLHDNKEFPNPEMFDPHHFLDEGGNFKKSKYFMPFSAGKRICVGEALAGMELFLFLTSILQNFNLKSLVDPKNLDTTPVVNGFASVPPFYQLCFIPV
Answers are plain numbers, in nM.

| STRUCTURE SMILES | MEASURED QUANTITY | ENDPOINT VALUE |
| --- | --- | --- |
| Cc1cc(C(=O)Nc2ccc(C(F)(F)F)cc2)nn1Cc1cccc(N2CCN(C(=O)C3CC3)CC2)c1 | IC50 | 1010 |

Please look at the following compound next.
-- ask Give its IC50 value. Item: Cc1cc(C(=O)Nc2ccc(OC(F)(F)F)cc2)nn1Cc1cccc(N2CCN(C(=O)C3CC3)CC2)c1
-- reply 1830

====

# STUDY SYSTEM: Cytochrome P450 2D6 (Homo sapiens)
# Sequence (P10635 whole entry): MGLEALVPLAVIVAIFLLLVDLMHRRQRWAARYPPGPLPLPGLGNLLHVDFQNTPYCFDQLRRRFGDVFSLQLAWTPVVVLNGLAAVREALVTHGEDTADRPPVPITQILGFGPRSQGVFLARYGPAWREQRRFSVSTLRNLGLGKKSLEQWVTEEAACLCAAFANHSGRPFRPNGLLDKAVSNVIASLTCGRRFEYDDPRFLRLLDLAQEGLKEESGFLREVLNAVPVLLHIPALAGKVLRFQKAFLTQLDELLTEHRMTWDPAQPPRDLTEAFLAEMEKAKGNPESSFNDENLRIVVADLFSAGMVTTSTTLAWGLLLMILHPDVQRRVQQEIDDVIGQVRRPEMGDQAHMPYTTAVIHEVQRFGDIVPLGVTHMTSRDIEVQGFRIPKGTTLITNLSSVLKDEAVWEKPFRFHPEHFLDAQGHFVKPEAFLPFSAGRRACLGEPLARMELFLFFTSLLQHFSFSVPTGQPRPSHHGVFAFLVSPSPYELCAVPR
# ASSAY OVERVIEW: Inhibition of CYP2D6 in human liver microsomes incubated for 20 mins in presence of NADPH by LC/MS/MS analysis
# Format: ADME, Microsome
pIC50: −log10 of the molar value.
MEASURED QUANTITY: pIC50

| STRUCTURE SMILES | pIC50 |
| --- | --- |
| Cc1cc(C(=O)Nc2ccc(C(F)(F)F)cc2)nn1Cc1cccc(N2CCN(C(=O)C3CC3)CC2)c1 | < 5.00 |

Please look at the following molecule next.
-- ask Give its pIC50 value. Item: Cc1cc(C(=O)Nc2ccc(OC(F)(F)F)cc2)nn1Cc1cccc(N2CCN(C(=O)C3CC3)CC2)c1
-- reply < 5.00

====

# Species: Homo sapiens
# ASSAY OVERVIEW: Inhibition of mitochondrial complex I (unknown origin) at 1 uM incubated for 15 mins by microplate reader analysis relative to control
Rule: inhibition of 20% or more gives true; anything lower gives false.

Worked cases, answers included:
| STRUCTURE SMILES | CATEGORY |
| --- | --- |
| Cc1cccc(NC(=O)c2cc(C)n(Cc3cccc(N4CCN(C(=O)C5CC5)CC4)c3)n2)c1 | false |
| Cc1cc(C(=O)Nc2cccnc2)nn1Cc1cccc(N2CCN(C(=O)C3CC3)CC2)c1 | false |
| Cc1cc(C(=O)Nc2ccc(OC(F)(F)F)cc2)nn1Cc1cccc(N2CCOCC2)c1 | false |
| CS(=O)(=O)C1CCN(c2cccc(Cn3ccc(C(=O)Nc4ccc(OC(F)(F)F)cc4)n3)c2)CC1 | true |

Attention now shifts to the item below.
-- ask Hello, I need to know if Cc1cc(C(=O)Nc2ccc(OC(F)(F)F)cc2)nn1Cc1cccc(-c2ccc(C(C)(C)C)cc2)c1 has measured inhibition not below 20%. Thanks!
-- reply true
